Experiment: Antagonist activity at human CCR1 assessed as inhibition of RANTES-induced chemotaxis
pIC50: −log10 of the molar value.
readout: pIC50

1) CC(C)[C@@H](NC(=O)[C@@H]1CC[C@@H](O)C1)C(=O)N1CC[C@](O)(c2ccc(Cl)cc2)C(C)(C)C1; 9.00

====

Experiment: Antagonist activity at human CCR1 assessed as inhibition of MPIF-1-induced chemotaxis
readout: IC50 (nM)

1) CC(C)[C@@H](NC(=O)[C@@H]1CC[C@@H](O)C1)C(=O)N1CC[C@](O)(c2ccc(Cl)cc2)C(C)(C)C1; 2.7
